The entries below are paired with their reported inhibition.
target: Rac GTPase-activating protein 1 (Homo sapiens) (UniProt Q9H0H5); assay: blockers of MgcRacGAP-driven Rac1 GTP hydrolysis – biochemical, ADP Hunter fluorescence, primary and confirmatory, confirmation (AID 624330); conditions: MgcRacGAP-stimulated Rac1 GTP hydrolysis, at 30 µM, hits give high values, GST-tagged Rac1 F28L mutant substrate;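 also: fluorescence reports GDP produced by GAP-driven GTP hydrolysis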
Sequence (Q9H0H5 whole entry, looked up): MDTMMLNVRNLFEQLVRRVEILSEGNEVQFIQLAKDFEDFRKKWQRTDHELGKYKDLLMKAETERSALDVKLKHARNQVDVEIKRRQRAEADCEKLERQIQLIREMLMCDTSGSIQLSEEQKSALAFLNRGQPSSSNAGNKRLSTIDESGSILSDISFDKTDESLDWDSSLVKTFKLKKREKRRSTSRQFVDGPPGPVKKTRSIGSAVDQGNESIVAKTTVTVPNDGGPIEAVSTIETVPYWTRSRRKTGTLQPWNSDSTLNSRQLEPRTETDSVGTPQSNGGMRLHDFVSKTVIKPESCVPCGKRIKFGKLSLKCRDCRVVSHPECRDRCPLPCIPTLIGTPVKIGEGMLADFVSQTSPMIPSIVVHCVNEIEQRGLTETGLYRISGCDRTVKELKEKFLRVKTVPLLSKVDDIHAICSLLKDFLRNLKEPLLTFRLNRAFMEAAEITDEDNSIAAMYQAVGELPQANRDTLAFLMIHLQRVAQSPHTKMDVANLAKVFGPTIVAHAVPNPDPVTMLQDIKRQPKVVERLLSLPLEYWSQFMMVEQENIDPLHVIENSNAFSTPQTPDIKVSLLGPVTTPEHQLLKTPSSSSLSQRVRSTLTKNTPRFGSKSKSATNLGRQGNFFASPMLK
In all, about 340,000 compounds went through this assay and about 2,100 (0.62%) were called active. These entries were drawn from the full list. Entries with a potency or affinity are not part of this list.

Examples with answers:
[ask] Give its inhibition value. Item: CN1CCN(c2cc(C(F)(F)F)nc(-c3ccccn3)n2)CC1
[reply] 1.81% (inactive)

[ask] Check COc1ccc(/C=N/NC(=O)CN2CCCC2)cc1 too.
[reply] -0.98% (inactive)

[ask] Check COc1ccc(NC(=O)CC2C(=O)NCCN2C(=O)c2ccccc2)cc1 (stereo not given) too.
[reply] 6.95% (inactive)

[ask] Check COCC(=O)Nc1cc(C)cn(Cc2cccc(C(F)(F)F)c2)c1=O too.
[reply] 3.75% (inactive)

Others:
[ask] Give its inhibition value. Item: CCn1ccnc1CN(C)Cc1nc(-c2ccccc2)no1
[reply] -3.37% (inactive)

[ask] Check CCN(CC)c1ccc(/C=N/NC(=S)NCc2ccccc2)c(O)c1 too.
[reply] 12.5% (inactive)

[ask] Check CCCCOc1ccc(/C=c2\sc3ncnn3c2=O)cc1 too.
[reply] 8.68% (inactive)

[ask] Check NC(=S)N/N=C/c1ccccc1O too.
[reply] 10.3% (inactive)

[ask] Check Cc1ccsc1/C=N/NC(=O)c1cccc(S(=O)(=O)Nc2ccccc2Cl)c1 too.
[reply] 13.6% (inactive)

[ask] Check CCN(C(=O)c1c(C)noc1C)c1c(N)n(Cc2ccccc2)c(=O)[nH]c1=O too.
[reply] 5.68% (inactive)

[ask] Check CC(C)CC1NC(=O)c2cc3ccccc3cc2-n2c1nc1ccc(Cl)cc1c2=O (stereo not given) too.
[reply] 6.29% (inactive)

[ask] Check O=S(=O)(c1cccc(S(=O)(=O)N2CCCC2)c1)N1CCCCC1 too.
[reply] -4.65% (inactive)

[ask] Check C/C=C\C=C/C(=O)Nc1cccc(C2=NOC3(C2)C[C@@H](C(N)=O)N(C(=O)COc2ccc(Cl)cc2)C3)c1 (stereo not given in full) too.
[reply] 7.01% (inactive)

[ask] Check CNc1ccc(/C=C2\COc3ccccc3C2=O)cc1[N+](=O)[O-] too.
[reply] 9.69% (inactive)

[ask] Check Cc1c(CN2CCC(C(=O)Nc3cccc(-c4cccc(Cl)c4)c3)CC2)cnn1C too.
[reply] 11.7% (inactive)

[ask] Check CCN(CC)c1ccc(/C=N/NC(=O)c2ccoc2C)c(O)c1 too.
[reply] 2.9% (inactive)

[ask] Check Cc1ccc(NS(=O)(=O)c2cc(N)ccc2Cl)c(C)c1 too.
[reply] 11.7% (inactive)

[ask] Check CCCN(CC(=O)Nc1ccccc1C)C(=O)C1CCN(S(=O)(=O)c2ccc3c(c2)OCCO3)CC1 too.
[reply] 4.31% (inactive)

[ask] Check CSc1nc(NS(=O)(=O)c2ccc(F)cc2F)nn1C too.
[reply] 6.35% (inactive)

[ask] Check CCN(CC)c1ccc(/C=N/Nc2ccccc2)c(O)c1 too.
[reply] 5.91% (inactive)

[ask] Check O=C(NNC(=O)c1ccccc1[N+](=O)[O-])c1ccc(NC(=O)c2ccccc2)cc1 too.
[reply] 12.4% (inactive)

[ask] Check NC(=O)CC(NC(=O)c1cccc(Br)c1)c1ccc(N2CCN(c3ccccn3)CC2)c([N+](=O)[O-])c1 (stereo not given) too.
[reply] 5.09% (inactive)

[ask] Check O=S(=O)(c1ccccc1)c1nc(Nc2cccc(O)c2)sc1Cl too.
[reply] 8.03% (inactive)

[ask] Check Cc1ccc(-c2csc3ncnc(SCC(=O)c4ccc5c(c4)OCCO5)c23)cc1 too.
[reply] 1.98% (inactive)

====

target: Rac GTPase-activating protein 1 (Homo sapiens) (UniProt Q9H0H5); experiment: blockers of MgcRacGAP-driven Rac1 GTP hydrolysis – biochemical, ADP Hunter fluorescence, primary and confirmatory, confirmation (AID 624330); conditions: MgcRacGAP-stimulated Rac1 GTP hydrolysis, at 30 µM, hits give high values, GST-tagged Rac1 F28L mutant substrate;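 also: fluorescence reports GDP produced by GAP-driven GTP hydrolysis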
Out of some 340,000 compounds screened, about 2,100 (0.62%) were called active. These entries were drawn from the full list. Results with a measured potency or affinity are listed apart.
reported metric: inhibition (%)
Give the value in % but do not write % after it.

[ask] Give its inhibition value. Item: COC(=O)c1cc(=O)n(Cc2cccs2)c(=NCc2cccs2)s1
[reply] 3.47

[ask] Check CC(C)(C)OC(=O)C[C@H]1C/C=C\C[C@@H](CC(=O)NCCO)C(=O)N[C@H](Cc2ccccc2)COC1=O too.
[reply] 5.95

[ask] Check COc1ccc2[nH]c3c(=S)nc[nH]c3c2c1 too.
[reply] 16.8

[ask] Check O=C(CNC(=O)c1ccco1)N/N=C/c1ccc(O)c([N+](=O)[O-])c1 too.
[reply] 1.55

[ask] Check CS(=O)(=O)c1nc(S(=O)(=O)c2ccc(Cl)cc2)c(N2CCCCC2)s1 too.
[reply] 5.12

[ask] Check Oc1c(Br)cc(/C=N/n2c(-c3ccccc3)n[nH]c2=S)cc1Br too.
[reply] 17.3

====

biological target: Rac GTPase-activating protein 1 (Homo sapiens); experiment: blockers of MgcRacGAP-driven Rac1 GTP hydrolysis – biochemical, ADP Hunter fluorescence, primary and confirmatory, confirmation (AID 624330); conditions: MgcRacGAP-stimulated Rac1 GTP hydrolysis, at 30 µM, hits give high values, GST-tagged Rac1 F28L mutant substrate;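 also: fluorescence reports GDP produced by GAP-driven GTP hydrolysis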
Out of some 340,000 compounds screened, about 2,100 (0.62%) were called active. The list is a sample of the results. Measured potencies and affinities stand elsewhere.
reported metric: inhibition (%)
Give the value in % but do not write % after it.

[ask] Give its inhibition value. Item: Cc1ccc(OCC(=O)N2CCCCCCC2)cc1
[reply] 9.5

[ask] Check CCOC(=O)C1CCN(C2=NC(=O)/C(=C/c3ccc(OC)c(OC)c3)S2)CC1 too.
[reply] 12.3

[ask] Check CCOC(=O)C1CCCN(C2=NC(=O)/C(=C/c3ccc(OC)c(OC)c3)S2)C1 (stereo unspecified) too.
[reply] 7.19

[ask] Check Cc1ccc(S(=O)(=O)N2CCN(CC3CC4C=CC3C4)CC2)cc1 (stereo unspecified) too.
[reply] 23.4

[ask] Check COc1cccc(/C=C2\SC(N3CCCC(C)C3)=NC2=O)c1OC (stereo unspecified) too.
[reply] 10.3

[ask] Check CCOC(=O)C1CCN(C2=NC(=O)/C(=C/c3ccc(Cl)cc3)S2)CC1 too.
[reply] 7.83

====

The entries below are paired with their reported inhibition.
target: Rac GTPase-activating protein 1 (Homo sapiens) (UniProt Q9H0H5); test: blockers of MgcRacGAP-driven Rac1 GTP hydrolysis – biochemical, ADP Hunter fluorescence, primary and confirmatory, confirmation (AID 624330); conditions: MgcRacGAP-stimulated Rac1 GTP hydrolysis, at 30 µM, hits give high values, GST-tagged Rac1 F28L mutant substrate;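 also: fluorescence reports GDP produced by GAP-driven GTP hydrolysis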
Among all 340,000 compounds or so, about 2,100 (0.62%) were called active. The list is a sample of the results. Measured potencies and affinities stand elsewhere.
Give the value in % but do not write % after it.

[ask] Give its inhibition value. Item: C/C(CC(=O)Nc1ccc([N+](=O)[O-])cc1)=N\NC(=O)c1ccccc1[N+](=O)[O-]
[reply] 7.35

[ask] Check C/C(CC(=O)Nc1ccc(N(C)C)cc1)=N\NC(=O)c1ccc(Cl)cc1 too.
[reply] 21.2

[ask] Check CCc1nnc(NC(=O)CSc2nnc(C3CC3)n2C)s1 too.
[reply] 3.03

[ask] Check COC(C(=O)N/N=C(\C)CC(=O)Nc1ccc(Cl)cc1C)c1ccccc1 (stereo not given) too.
[reply] 0.47

[ask] Check COc1cc(O)cc2cc3c(c(O)c12)C(=O)CC(C)(O)O3 (stereo not given) too.
[reply] -0.09

Others:
[ask] Give its inhibition value. Item: C/C(CC(=O)Nc1ccc(N(C)C)cc1)=N\NC(=O)c1cnccn1
[reply] 25.8

[ask] Check Nn1c(SCC(=O)NCCC2=CCCCC2)nnc1C(F)(F)F too.
[reply] 9.95

[ask] Check C/C(CC(=O)Nc1ccc(N(C)C)cc1)=N\NC(=O)c1ccc(C(C)(C)C)cc1 too.
[reply] 14.2

[ask] Check Cc1cccc(NC(=O)C2(C)CC3c4ccccc4C2c2ccccc23)c1C (stereo not given) too.
[reply] 4.55

[ask] Check C/C(CC(=O)Nc1ccc([N+](=O)[O-])cc1)=N\NC(=O)c1ccccc1O too.
[reply] 3.2

====

target: Rac GTPase-activating protein 1 (Homo sapiens) (UniProt Q9H0H5); experiment: blockers of MgcRacGAP-driven Rac1 GTP hydrolysis – biochemical, ADP Hunter fluorescence, primary and confirmatory, confirmation (AID 624330); conditions: MgcRacGAP-stimulated Rac1 GTP hydrolysis, at 30 µM, hits give high values, GST-tagged Rac1 F28L mutant substrate;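 also: fluorescence reports GDP produced by GAP-driven GTP hydrolysis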
Among all 340,000 compounds or so, about 2,100 (0.62%) were called active. These entries were drawn from the full list. Potency and affinity values are given separately.
The entries below are paired with their reported inhibition.
Give the value in % but do not write % after it.

Examples with answers:
[ask] Give its inhibition value. Item: CC1=Nc2cc(C(=O)NCCCOC(C)C)ccc2Sc2ccc(C)cc21
[reply] 7.38

[ask] Check COc1ccc(NC(=O)/C(=C\c2cc(OC)c(OC)cc2[N+](=O)[O-])NC(=O)c2ccccc2)cc1 too.
[reply] 9.89

[ask] Check COc1ccc(/C=N/NC(=O)C(=O)NCc2cccnc2)cc1OC too.
[reply] -5.14

Others:
[ask] Give its inhibition value. Item: Cc1ccc(-c2nc(N)sc2-c2ccccc2)cc1C
[reply] 8.82

[ask] Check CCOc1ccc(OCC(=O)Nc2cc(Cl)ccc2-n2cncn2)cc1 too.
[reply] 20.4

[ask] Check O=C(CCc1nnc(CCCCc2ccccc2)o1)NCc1cc(F)ccc1F too.
[reply] 9.91

[ask] Check COc1ccc(/C=C(\C#N)C(=O)NCc2cccnc2)cc1OC too.
[reply] 0.52

[ask] Check O=C(NCc1cccnc1)C(=O)NCC1OCCCN1S(=O)(=O)c1ccc(Cl)cc1 (configuration not stated) too.
[reply] 1.54

[ask] Check CCOc1cc(/C=C(\C#N)C(=O)Nc2ccccn2)ccc1O too.
[reply] 12.8

[ask] Check Cc1ccc2nsnc2c1NC(=O)COc1ccccc1F too.
[reply] 11.1

Origin of the recorded values: PubChem BioAssay AID624330
